The reported measurements were obtained from the supplement of paper PMC11246515.

- experimental_protocol: total protein half-life in vivo (active degradation + dilution); higher = more stable protein
- conditions_used: wild type E. coli NCM3722; growth: C-lim chemostat; doubling time 6 h
Would you kindly list total protein half-life in vivo for each of these sequences?
Supply the numeric figure in h, leaving out any unit text.

Documented total protein half-life in vivo of `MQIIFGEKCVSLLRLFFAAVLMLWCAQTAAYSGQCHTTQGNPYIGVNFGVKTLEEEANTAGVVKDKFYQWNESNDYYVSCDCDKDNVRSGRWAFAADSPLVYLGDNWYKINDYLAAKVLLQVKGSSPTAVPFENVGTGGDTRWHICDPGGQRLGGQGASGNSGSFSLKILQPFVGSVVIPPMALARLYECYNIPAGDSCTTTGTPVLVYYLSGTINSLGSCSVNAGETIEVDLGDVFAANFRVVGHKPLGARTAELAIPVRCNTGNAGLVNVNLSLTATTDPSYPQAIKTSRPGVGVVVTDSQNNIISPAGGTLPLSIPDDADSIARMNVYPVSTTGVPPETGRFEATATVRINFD` : 5.54

Documented total protein half-life in vivo of `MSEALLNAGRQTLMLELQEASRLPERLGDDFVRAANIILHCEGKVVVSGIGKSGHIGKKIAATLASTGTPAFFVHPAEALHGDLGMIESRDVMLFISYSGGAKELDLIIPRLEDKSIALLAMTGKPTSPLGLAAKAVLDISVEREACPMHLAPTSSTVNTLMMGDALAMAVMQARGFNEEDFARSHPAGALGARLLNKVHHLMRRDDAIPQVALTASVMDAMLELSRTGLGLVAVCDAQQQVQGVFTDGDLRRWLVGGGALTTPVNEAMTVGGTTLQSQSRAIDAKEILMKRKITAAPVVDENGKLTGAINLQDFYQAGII` : 5.34

====

- experimental_protocol: total protein half-life in vivo (active degradation + dilution); higher = more stable protein
- conditions_used: wild type E. coli NCM3722; growth: N-lim chemostat; doubling time 6 h
Would you kindly list total protein half-life in vivo for each of these sequences?
Supply the numeric figure in h, leaving out any unit text.

Documented total protein half-life in vivo of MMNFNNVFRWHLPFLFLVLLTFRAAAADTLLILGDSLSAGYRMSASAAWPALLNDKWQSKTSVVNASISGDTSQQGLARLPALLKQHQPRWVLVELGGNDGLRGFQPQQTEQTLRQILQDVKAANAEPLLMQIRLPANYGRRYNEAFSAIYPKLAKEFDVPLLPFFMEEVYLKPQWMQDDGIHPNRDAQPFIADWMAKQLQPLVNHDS [P0ADA1] : 5.25

Documented total protein half-life in vivo of `MKQTVYIASPESQQIHVWNLNHEGALTLTQVVDVPGQVQPMVVSPDKRYLYVGVRPEFRVLAYRIAPDDGALTFAAESALPGSPTHISTDHQGQFVFVGSYNAGNVSVTRLEDGLPVGVVDVVEGLDGCHSANISPDNRTLWVPALKQDRICLFTVSDDGHLVAQDPAEVTTVEGAGPRHMVFHPNEQYAYCVNELNSSVDVWELKDPHGNIECVQTLDMMPENFSDTRWAADIHITPDGRHLYACDRTASLITVFSVSEDGSVLSKEGFQPTETQPRGFNVDHSGKYLIAAGQKSHHISVYEIVGEQGLLHEKGRYAVGQGPMWVVVNAH` : 4.95

====

- experimental_protocol: total protein half-life in vivo (active degradation + dilution); higher = more stable protein
- conditions_used: E. coli NCM3722 delta-lon; growth: N-lim chemostat; doubling time 6 h
Would you kindly list total protein half-life in vivo for each of these sequences?

Documented total protein half-life in vivo of MTKYALVGDVGGTNARLALCDIASGEISQAKTYSGLDYPSLEAVIRVYLEEHKVEVKDGCIAIACPITGDWVAMTNHTWAFSIAEMKKNLGFSHLEIINDFTAVSMAIPMLKKEHLIQFGGAEPVEGKPIAVYGAGTGLGVAHLVHVDKRWVSLPGEGGHVDFAPNSEEEAIILEILRAEIGHVSAERVLSGPGLVNLYRAIVKADNRLPENLKPKDITERALADSCTDCRRALSLFCVIMGRFGGNLALNLGTFGGVFIAGGIVPRFLEFFKASGFRAAFEDKGRFKEYVHDIPVYLIVHDNPGLLGSGAHLRQTLGHIL [P0A6V8] : 5.7 h

Documented total protein half-life in vivo of `MSKLDLNALNELPKVDRILALAETNAELEKLDAEGRVAWALDNLPGEYVLSSSFGIQAAVSLHLVNQIRPDIPVILTDTGYLFPETYRFIDELTDKLKLNLKVYRATESAAWQEARYGKLWEQGVEGIEKYNDINKVEPMNRALKELNAQTWFAGLRREQSGSRANLPVLAIQRGVFKVLPIIDWDNRTIYQYLQKHGLKYHPLWDEGYLSVGDTHTTRKWEPGMAEEETRFFGLKRECGLHEG` : 1.64 h

Documented total protein half-life in vivo of `MFSALRHRTAALALGVCFILPVHASSPKPGDFANTQARHIATFFPGRMTGTPAEMLSADYIRQQFQQMGYRSDIRTFNSRYIYTARDNRKSWHNVTGSTVIAAHEGKAPQQIIIMAHLDTYAPLSDADADANLGGLTLQGMDDNAAGLGVMLELAERLKNTPTEYGIRFVATSGEEEGKLGAENLLKRMSDTEKKNTLLVINLDNLIVGDKLYFNSGVKTPEAVRKLTRDRALAIARSHGIAATTNPGLNKNYPKGTGCCNDAEIFDKAGIAVLSVEATNWNLGNKDGYQQRAKTPAFPAGNSWHDVRLDNHQHIDKALPGRIERRCRDVMRIMLPLVKELAKAS` : 5.44 h

====

- experimental_protocol: total protein half-life in vivo (active degradation + dilution); higher = more stable protein
- conditions_used: wild type E. coli NCM3722; growth: P-lim chemostat; doubling time 12 h
Would you kindly list total protein half-life in vivo for each of these sequences?
Supply the numeric figure in h, leaving out any unit text.

Documented total protein half-life in vivo of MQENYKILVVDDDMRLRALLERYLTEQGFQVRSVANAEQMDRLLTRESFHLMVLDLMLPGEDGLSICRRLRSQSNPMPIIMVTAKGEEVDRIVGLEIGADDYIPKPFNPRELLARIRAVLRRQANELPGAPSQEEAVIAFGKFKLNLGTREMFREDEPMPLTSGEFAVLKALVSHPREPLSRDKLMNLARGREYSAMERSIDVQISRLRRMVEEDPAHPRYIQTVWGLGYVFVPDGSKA [P0AA16] : 11

Documented total protein half-life in vivo of `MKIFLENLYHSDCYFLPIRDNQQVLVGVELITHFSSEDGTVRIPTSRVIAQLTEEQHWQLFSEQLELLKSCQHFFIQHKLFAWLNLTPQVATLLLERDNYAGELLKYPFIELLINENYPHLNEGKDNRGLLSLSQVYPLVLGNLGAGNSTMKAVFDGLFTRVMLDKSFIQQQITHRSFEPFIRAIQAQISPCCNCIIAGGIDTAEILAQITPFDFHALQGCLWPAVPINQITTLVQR` : 11.5

Documented total protein half-life in vivo of `MHADTATRQHWMSVLAHSQPAELAARLNALNITADYEVIRAAETGLVQIQARMGGTGERFFAGDATLTRAAVRLTDGTLGYSWVQGRDKQHAERCALIDALMQQSRHFQNLSETLIAPLDADRMARIAARQAEVNASRVDFFTMVRGDNA` : 1.64

Documented total protein half-life in vivo of MIIIRYLVRETLKSQLAILFILLLIFFCQKLVRILGAAVDGDIPANLVLSLLGLGVPEMAQLILPLSLFLGLLMTLGKLYTESEITVMHACGLSKAVLVKAAMILAVFTAIVAAVNVMWAGPWSSRHQDEVLAEAKANPGMAALAQGQFQQATNGSSVLFIESVDGSDFKDVFLAQIRPKGNARPSVVVADSGHLTQLRDGSQVVTLNQGTRFEGTALLRDFRITDFQDYQAIIGHQAVALDPNDTDQMDMRTLWNTDTDRARAELNWRITLVFTVFMMALMVVPLSVVNPRQGRVLSMLPAMLLYLLFFLIQTSLKSNGGKGKLDPTLWMWTVNLIYLALAIVLNLWDTVPVRRLRASFSRKGAV [P0AF98] : 12.6

Documented total protein half-life in vivo of `MIAIADILQAGEKLTAVAPFLAGIQNEEQYTQALELVDHLLLNDPENPLLDLVCAKITAWEESAPEFAEFNAMAQAMPGGIAVIRTLMDQYGLTLSDLPEIGSKSMVSRVLSGKRKLTLEHAKKLATRFGISPALFID` : 1.85

Documented total protein half-life in vivo of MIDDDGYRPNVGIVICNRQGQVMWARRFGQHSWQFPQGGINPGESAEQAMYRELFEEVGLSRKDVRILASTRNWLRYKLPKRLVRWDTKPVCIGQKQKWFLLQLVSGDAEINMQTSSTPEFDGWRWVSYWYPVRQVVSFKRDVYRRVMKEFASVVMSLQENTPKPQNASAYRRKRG [P0A776] : 9.25

Documented total protein half-life in vivo of `MVKVYAPASSANMSVGFDVLGAAVTPVDGALLGDVVTVEAAETFSLNNLGRFADKLPSEPRENIVYQCWERFCQELGKQIPVAMTLEKNMPIGSGLGSSACSVVAALMAMNEHCGKPLNDTRLLALMGELEGRISGSIHYDNVAPCFLGGMQLMIEENDIISQQVPGFDEWLWVLAYPGIKVSTAEARAILPAQYRRQDCIAHGRHLAGFIHACYSRQPELAAKLMKDVIAEPYRERLLPGFRQARQAVAEIGAVASGISGSGPTLFALCDKPETAQRVADWLGKNYLQNQEGFVHICRLDTAGARVLEN` : 12.6

Documented total protein half-life in vivo of MLKKFRGMFSNDLSIDLGTANTLIYVKGQGIVLNEPSVVAIRQDRAGSPKSVAAVGHDAKQMLGRTPGNIAAIRPMKDGVIADFFVTEKMLQHFIKQVHSNSFMRPSPRVLVCVPVGATQVERRAIRESAQGAGAREVFLIEEPMAAAIGAGLPVSEATGSMVVDIGGGTTEVAVISLNGVVYSSSVRIGGDRFDEAIINYVRRNYGSLIGEATAERIKHEIGSAYPGDEVREIEVRGRNLAEGVPRGFTLNSNEILEALQEPLTGIVSAVMVALEQCPPELASDISERGMVLTGGGALLRNLDRLLMEETGIPVVVAEDPLTCVARGGGKALEMIDMHGGDLFSEE [P0A9X4] : 12.4

Documented total protein half-life in vivo of `MSFSVQETLFSLLQHNAISGHENAVADVMLCEFRRQAKEVWRDRLGNVVARYGSDKPDALRLMIFAHMDEVGFMVRKIEPSGFLRFERVGGPAQVTMAGSIVTLTGDKGPVMGCIGIKSYHFAKGDERTQSPSVDKLWIDIGAKDKDDAIRMGIQVGTPVTLYNPPQLLANDLVCSKALDDRLGCTALLGVADAISTMELDIAVYLVASVQEEFNIRGIVPVLRRVKPDLAIGIDITPSCDTPDLHDYSEVRINQGVGITCLNYHGRGTLAGLITPPRLIRMLEQTALEHNIPVQREVAPGVITETGYIQVEQDGIPCASLSIPCRYTHSPAEVASLRDLTDCIRLLTALAGMSAAHFPVEPDSGTTQEAHPL` : 10.2

Documented total protein half-life in vivo of `MQKFDTRTFQGLILTLQDYWARQGCTIVQPLDMEVGAGTSHPMTCLRELGPEPMAAAYVQPSRRPTDGRYGENPNRLQHYYQFQVVIKPSPDNIQELYLGSLKELGMDPTIHDIRFVEDNWENPTLGAWGLGWEVWLNGMEVTQFTYFQQVGGLECKPVTGEITYGLERLAMYIQGVDSVYDLVWSDGPLGKTTYGDVFHQNEVEQSTYNFEYADVDFLFTCFEQYEKEAQQLLALENPLPLPAYERILKAAHSFNLLDARKAISVTERQRYILRIRTLTKAVAEAYYASREALGFPMCNKDK` : 13.3

Documented total protein half-life in vivo of `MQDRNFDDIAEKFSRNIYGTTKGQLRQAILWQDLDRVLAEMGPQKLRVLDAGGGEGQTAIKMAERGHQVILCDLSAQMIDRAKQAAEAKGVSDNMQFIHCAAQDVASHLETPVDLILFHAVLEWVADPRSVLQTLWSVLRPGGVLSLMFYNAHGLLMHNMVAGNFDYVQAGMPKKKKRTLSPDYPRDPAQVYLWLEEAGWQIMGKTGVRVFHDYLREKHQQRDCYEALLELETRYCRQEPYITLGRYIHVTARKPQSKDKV` : 11
